Property: TGI; scope: individual compounds
Test system: OVCAR-3 ovarian
Test: NCI tumour cell line growth inhibition, 48 h

Would you please look over these solved cases?
Prompt line: Need TGI of Cn1c2[n+](c3nc(N)[nH]c(=O)c31)C1OC(C2)C(O)C1O (stereo not given) , thanks.
Response line: > 100 µM

Prompt line: Need TGI of O=C1C2c3[nH]c4ccccc4c3C3CCCCCC3C2C(=O)N1c1ccccc1 (stereo not given) , thanks.
Response line: 35.7 µM

Prompt line: Need TGI of CCN(CC)CCC1(C2CCCCC2)CCC(=O)NC1=O (stereo not given) , thanks.
Response line: > 100 µM

Prompt line: Need TGI of `COc1ccc(S(=O)(=O)N[C@H](C(=O)O)c2ccccc2)cc1` , thanks.
Response line: > 100 µM

New cases:
Prompt line: Need TGI of `NC(=O)C(=CNC(=S)Nc1ccc(S(=O)(=O)Nc2ccccn2)cc1)C(N)=O` , thanks.
Response line: > 100 µM

* * *

Property: GI50; scope: individual molecules
System: M14 melanoma
Assay: NCI tumour cell line growth inhibition, 48 h

Would you please look over these solved cases?
Prompt line: Need GI50 of CC1C(=O)c2cc3c(cc2CCN(C)Cc2c1ccc1c2OCO1)OCO3 (stereo not given) , thanks.
Response line: 43.6 µg/mL

Prompt line: Need GI50 of `Cc1c(-c2ccc(O)cc2)oc(=O)c2ccc(O)cc12` , thanks.
Response line: 40.3 µM

Prompt line: Need GI50 of `CCCCN=C(N)c1ccc(N2CCCN(c3ccc(C(N)=NCCCC)cc3)CC2)cc1` , thanks.
Response line: 43.1 µM

Prompt line: Need GI50 of `COc1ccc(-c2[nH]nc(N)c2-c2cc(OC)c3c(c2)OCO3)cc1` , thanks.
Response line: 2.55 µM

# ---- query molecule ----
Prompt line: Need GI50 of `CC(=O)OC(C)(C)/C=C/C(=O)[C@](C)(O)[C@H]1[C@H](O)C[C@@]2(C)[C@@H]3CC=C4[C@@H](C=C(O)C(=O)C4(C)C)[C@]3(C)C(=O)C[C@]12C` , thanks.
Response line: 0.0193 µM

* * *

System: NCI-H522 lung
Assay: NCI tumour cell line growth inhibition, 48 h
RESULT TYPE: TGI (µM)
The response must be a number in µM with no trailing unit.

Prompt line: Need TGI of `O=C(N/C(=C\c1ccccc1Cl)c1nc2ccccc2[nH]1)c1ccccc1` , thanks.
Response line: 72.5

Prompt line: Need TGI of `COc1cccc(C=C2N=C(c3ccccc3)N(n3c(-c4ccccc4)nc4ccccc4c3=O)C2=O)c1` , thanks.
Response line: 62.1

Prompt line: Need TGI of `Cc1nc(-c2cnc(NC(C)C)n(C)c2=O)ccc1Oc1ccnc(-c2cnn(C)c2)c1` , thanks.
Response line: 71.9

# ---- query compound ----
Prompt line: Need TGI of `CCCCCC[C@@H](C)Nc1nc2ccccc2c2occc12` , thanks.
Response line: 13.3

* * *

Test system: CAKI-1 renal
Assay: NCI tumour cell line growth inhibition, 48 h
RESULT TYPE: TGI (µM)
The response must be a number in µM with no trailing unit.

Would you please look over these solved cases?
Prompt line: Provide the documented TGI with CAKI-1 renal as the system for `CCOC(=O)c1nc2ccccc2nc1Nc1ccc(OC)cc1`
Response line: 56.6

Prompt line: Provide the documented TGI with CAKI-1 renal as the system for `COc1c(O)cc2c(c1O)C(=O)C1=C(CCCC1)C2=O`
Response line: 71

Prompt line: Provide the documented TGI with CAKI-1 renal as the system for `C[C@@H](Nc1nc(Nc2ccc(F)c(Cl)c2)nc2c(C3=CCNCC3)cccc12)C1CC1`
Response line: 2.99

Prompt line: Provide the documented TGI with CAKI-1 renal as the system for COc1ccc(C(=O)O[C@H]2[C@H](O[C@H]3[C@@H](O)COC(O[C@H]4C[C@H]5[C@@H]6CC=C7C[C@@H](O)CC[C@]7(C)[C@H]6CC[C@]5(C)[C@H]4[C@H](C)C(=O)CCC(C)C)[C@@H]3OC(C)=O)OC[C@@H](O)[C@@H]2O)c(C)c1 (some centres undefined)
Response line: 1.08

# ---- query compound ----
Prompt line: Provide the documented TGI with CAKI-1 renal as the system for `Cc1ccc(-c2nc(N3CCNCC3)c3oc(-c4ccccc4)nc3n2)cc1`
Response line: 3.26
